Would you mind telling me the reported pIC50 of each entry?
Tested on: MIA PaCa-2 cells
Test: In-vitro anti-proliferative activity in combination with gemcitabine on MIA PaCa-2 cells
Type: cell-based
Details: 72 h, with 20 nM gemcitabine, read-out: in combination with 20 nM GMC IC50
Give bare numbers, as −log10 of the molar value.

Recorded results for 4 molecules are shown here.
COC1CCN(c2cc(Nc3ncc(C#N)c(Nc4cccc(N=S(C)(C)=O)n4)n3)cc3c2CCN(C)C3)CC1 [Compound 120]    8.35
C[C@@H]1CN(c2cc(Nc3ncc(C#N)c(Nc4cccc(N=S(C)(C)=O)n4)n3)cc3c2CCN(C)C3)C[C@H](C)O1 [Compound 127]    8.09
CS(C)(=O)=Nc1cccc(Nc2nc(Nc3cc4c(c(C5CC5)c3)CCNC4)ncc2C#N)n1 [Compound 148]    8.68
CN1CCc2c(cc(Nc3ncc(C#N)c(Nc4cccc(N=S(C)(C)=O)n4)n3)cc2-c2ccn(C)n2)C1 [Compound 113]    7.93

Answer for every listed entry: what is its pIC50? The entries follow.
1. CN1CCN(c2cccc(Nc3ncc(C#N)c(Nc4cccc(N=S(C)(C)=O)n4)n3)c2)CC1 [Compound 63]
2. CN(C)C1Cc2ccc(Nc3ncc(C#N)c(Nc4cccc(N=S(C)(C)=O)n4)n3)cc2C1 (stereo not drawn) [Compound 60]
3. COc1cc2c(cc1Nc1ncc(C#N)c(Nc3cccc(N=S(C)(C)=O)n3)n1)CN(C)CC2 [Compound 147]
4. CN1CCc2ccc(Nc3ncc(I)c(Nc4cccc(N=S(C)(C)=O)n4)n3)cc2C1 [Compound 105]

Completion:
7.74
7.99
7.30
7.58

Answer for every listed entry: what is its pIC50? The entries follow.
1. CN1CCc2c(I)cc(Nc3ncc(C#N)c(Nc4cccc(N=S(C)(C)=O)n4)n3)cc2C1 [Compound 28]
2. CN1CCc2c(cc(Nc3ncc(C#N)c(Nc4ccccc4N=S(C)(C)=O)n3)cc2C2CC2)C1 [Compound 150]

Completion:
1. 7.84
2. 8.46

Answer for every listed entry: what is its pIC50? The entries follow.
1. C#Cc1cnc(Nc2ccc3c(c2)CN(C)CC3)nc1Nc1cccc(N=S(C)(C)=O)n1 [Compound 107]
2. CN1CCC(N2CCN(c3ccc(Nc4ncc(C#N)c(Nc5cccc(N=S(C)(C)=O)n5)n4)cc3)CC2)CC1 [Compound 62]

Completion:
1. 7.58
2. 7.90

====

Tested on: HT29 subcutaneous xenograft tumor
Experiment: Mouse HT29 subcutaneous xenograft tumor model (Example 165), with 30 mg/kg gemcitabine
Format: in vivo
Conditions: 30 mg/kg orally once a day in combination with 30 mg/kg of gemcitabine ip once a week, day 20
Would you mind telling me the reported TGI of each entry?

Recorded results for 3 compounds are shown here.
CC(C)c1cc(Nc2ncc(C#N)c(Nc3cccc(N=S(C)(C)=O)n3)n2)cc2c1CCN(C)C2 [Compound 14]    106%
CN1CCc2c(cc(Nc3ncc(C#N)c(Nc4cccc(N=S(C)(C)=O)n4)n3)cc2C2CCCC2)C1 [Compound 18]    92%
COCCCc1cc(Nc2ncc(C#N)c(Nc3cccc(N=S(C)(C)=O)n3)n2)cc2c1CCN(C)C2 [Compound 128]    87%

Field: next compound
Prompt: Please tell me: TGI of CN1CCc2c(cc(Nc3ncc(C#N)c(Nc4cccc(N=S(C)(C)=O)n4)n3)cc2C2(C)CC2)C1 [Compound 101] , system HT29 subcutaneous xenograft tumor?
Completion: 102%
